Ref: patent US5599793A

molecular target: factor Xa (Homo sapiens, UniProt P00742); construct: Human factors X, Xa, IXa, XIa, and XIIa are purchased; purchased Enzyme Research Laboratories, South Bend, Ind; assay: Serine protease selectivity, chromogenic substrate (Kass), factor Xa; assay type: biochemical; settings: substrate N-Benzoyl-Ile-Glu-Gly-Arg-p-nitroanilide
Sequence (P00742 235-488 limits assumed): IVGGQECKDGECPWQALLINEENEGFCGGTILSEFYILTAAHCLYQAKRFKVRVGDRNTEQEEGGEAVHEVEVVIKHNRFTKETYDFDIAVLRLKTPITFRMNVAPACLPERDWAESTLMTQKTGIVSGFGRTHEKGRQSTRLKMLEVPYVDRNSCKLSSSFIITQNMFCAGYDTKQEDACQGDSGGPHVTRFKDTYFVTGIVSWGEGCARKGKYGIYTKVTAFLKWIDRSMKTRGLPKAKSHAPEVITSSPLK
Sequence (P00742 41-179 partner limits assumed): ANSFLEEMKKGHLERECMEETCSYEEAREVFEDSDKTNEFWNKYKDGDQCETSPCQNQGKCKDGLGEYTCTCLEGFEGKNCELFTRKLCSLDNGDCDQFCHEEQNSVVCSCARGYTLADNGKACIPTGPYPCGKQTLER
ENDPOINT: Enzyme Kass, Xa (L/mol × 10^6)
Respond with the bare value in L/mol × 10^6.

Consider the molecule Cl.Cl.N=C(N)NCCC[C@H](C=O)NC(=O)[C@@H]1C[C@H](Oc2ccccc2)CN1C(=O)[C@H]1CCCCN1 (relative stereo) [Example 8] . State its measured Enzyme Kass, Xa.
3.0

Return Enzyme Kass, Xa for the following molecule: CC(C)CC[C@H]1C[C@@H](C(=O)N[C@H](C=O)CCCNC(=N)N)N(C(=O)[C@H]2CCCCN2)C1.Cl.Cl (relative stereo) [Example 4]
7.9

Annotate the molecule CC(C)CC[C@H]1C[C@@H](C(=O)N[C@H](C=O)CCCNC(=N)N)N(C(=O)C2NCCC3CCCCC32)C1.Cl.Cl (relative stereo) [Example 28, 1-Piq-Pro(4-cis-isoamyl)-ArgH.2 HCl] with its measured Enzyme Kass, Xa.
0.14

###

target: Plasmin (Homo sapiens, UniProt P00747); construct: Human plasmin is purchased; purchased Boehringer Mannheim, Indianapolis, Ind; experiment: Serine protease selectivity, chromogenic substrate (Kass), plasmin; assay type: biochemical; conditions: substrate H-D-Val-Leu-Lys-p-nitroanilide
Sequence (P00747 581-810 limits assumed): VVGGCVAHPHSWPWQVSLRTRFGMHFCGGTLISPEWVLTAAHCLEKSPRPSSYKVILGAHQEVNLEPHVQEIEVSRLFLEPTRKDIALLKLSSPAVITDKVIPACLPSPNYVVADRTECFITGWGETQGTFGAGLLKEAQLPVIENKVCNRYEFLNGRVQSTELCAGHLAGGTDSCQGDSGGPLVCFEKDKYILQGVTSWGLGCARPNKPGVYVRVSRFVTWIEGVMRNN
Sequence (P00747 97-580 partner limits assumed): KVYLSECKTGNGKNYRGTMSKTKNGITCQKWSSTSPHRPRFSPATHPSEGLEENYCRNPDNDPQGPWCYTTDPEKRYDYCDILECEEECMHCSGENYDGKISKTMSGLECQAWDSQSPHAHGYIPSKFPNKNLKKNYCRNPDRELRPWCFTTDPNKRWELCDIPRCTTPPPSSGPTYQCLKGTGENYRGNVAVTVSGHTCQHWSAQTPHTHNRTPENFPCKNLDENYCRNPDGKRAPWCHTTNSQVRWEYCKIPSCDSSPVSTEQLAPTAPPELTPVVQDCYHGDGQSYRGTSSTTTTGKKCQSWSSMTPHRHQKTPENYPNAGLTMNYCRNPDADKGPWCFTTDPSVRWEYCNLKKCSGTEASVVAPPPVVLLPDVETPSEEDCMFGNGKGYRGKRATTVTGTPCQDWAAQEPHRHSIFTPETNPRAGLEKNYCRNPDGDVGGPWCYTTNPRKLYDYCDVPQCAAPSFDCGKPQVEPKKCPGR
ENDPOINT: Enzyme Kass, Plasmin (L/mol × 10^6)
Please respond with the number in L/mol × 10^6 and leave the unit unwritten.

State, in one line, measured Enzyme Kass, Plasmin of CCS(=O)(=O)N[C@@H](C(=O)N1[C@H](C(=O)N[C@H](C=O)CCCNC(=N)N)C[C@@H]2CCCC[C@@H]21)c1ccccc1.Cl (relative stereo) [Example 22, EtSO2 -D-Phg-cis-Ohi-ArgH.HCl]
27.6

State, in one line, measured Enzyme Kass, Plasmin of C[C@H]1C[C@@H](C(=O)N[C@H](C=O)CCCNC(=N)N)N(C(=O)[C@H]2CCCCN2)C1.Cl.Cl (relative stereo)
0.86

Give reported Enzyme Kass, Plasmin value for Cl.N=C(N)NCCC[C@@H](C=O)NC(=O)[C@@H]1C[C@@H]2CCCC[C@@H]2N1C(=O)[C@@H](Cc1ccccc1)NCC(=O)O (relative stereo) [Example 24, HOOCCH2 -D-Phe-cis-Ohi-ArgH.HCl]
16.3

###

target: Plasmin (Homo sapiens, UniProt P00747); construct: Human plasmin is purchased; purchased Boehringer Mannheim, Indianapolis, Ind; assay: Serine protease selectivity, chromogenic substrate (Kass), plasmin; assay type: biochemical; conditions: substrate H-D-Val-Leu-Lys-p-nitroanilide
ENDPOINT: Enzyme Kass, Plasmin (L/mol × 10^6)
Value expressed in L/mol × 10^6; do not type the unit.

Quick one: give measured Enzyme Kass, Plasmin for Cl.Cl.N=C(N)NCCCC(C=O)NC(=O)C1CC2CCCCC2N1C(=O)C1CC2CCCCC2CN1 [Example 25, D-3-cis-Piq-cis-Ohi-ArgH.2 HCl]
12.4

# return recorded Enzyme Kass, Plasmin for entry CC(C)CC[C@H]1C[C@@H](C(=O)N[C@H](C=O)CCCNC(=N)N)N(C(=O)C2NCCC3CCCCC32)C1.Cl.Cl (relative stereo) [Example 28, 1-Piq-Pro(4-cis-isoamyl)-ArgH.2 HCl]
0.27

Hello, please tell me recorded Enzyme Kass, Plasmin for this one: CCC[C@H]1C[C@@H](C(=O)N[C@H](C=O)CCCNC(=N)N)N(C(=O)[C@H]2CCCCN2)C1.Cl.Cl (relative stereo) [Example 3, D-hPro-Pro(4-cis-n-propyl)-ArgH.2 HCl]
0.66

For the compound Cl.Cl.Cl.N=C(N)NCCC[C@@H](C=O)NC(=O)[C@@H]1C[C@H](Oc2ccc(N)cc2)CN1C(=O)[C@H]1CCCCN1 (relative stereo) , report Enzyme Kass, Plasmin.
1.4

Item Cl.Cl.NC(N)=NCCCC(C=O)NC(=O)C1CC(Oc2ccccc2)CN1C(=O)C1CC2CCCCC2CN1 (stereo not drawn) : provide Enzyme Kass, Plasmin
11.3

Give reported Enzyme Kass, Plasmin value for CC[C@H]1C[C@@H](C(=O)N[C@H](C=O)CCCNC(=N)N)N(C(=O)[C@H]2CCCCN2)C1.Cl.Cl (relative stereo)
1.0

Give the reported Enzyme Kass, Plasmin for this compound. Cl.Cl.N=C(N)NCCC[C@@H](C=O)NC(=O)[C@@H]1C[C@H](Oc2ccccc2)CN1C(=O)C1NCCC2CCCCC21 (relative stereo) [Example 15, D-1-Piq-Pro(4-cis-phenoxy)-ArgH.2 HCl]
5.1

Answer with reported Enzyme Kass, Plasmin of Cl.Cl.N=C(N)NCCC[C@@H](C=O)NC(=O)[C@@H]1C[C@H](Oc2cccc(C(=O)O)c2)CN1C(=O)[C@H]1CCCCN1 (relative stereo)
0.50

Assign Enzyme Kass, Plasmin to the following record: Cl.Cl.N=C(N)NCCC[C@@H](C=O)NC(=O)[C@@H]1CC2CCCCC2N1C(=O)[C@H]1CCCCN1 (relative stereo)
1.8

Given the compound CCS(=O)(=O)N[C@H](Cc1ccccc1)C(=O)N1[C@H](C(=O)N[C@H](C=O)CCCNC(=N)N)C[C@@H]2CCCC[C@@H]21.Cl (relative stereo) [Example 23, EtSO2 -D-Phe-cis-Ohi-ArgH.HCl] , write its reported Enzyme Kass, Plasmin.
28.2

Tell me measured Enzyme Kass, Plasmin for Cl.Cl.N=C(N)NCCC[C@@H](C=O)NC(=O)[C@@H]1C[C@H](Cc2ccccc2)CN1C(=O)[C@H]1CCCCN1 (relative stereo) [Example 5, D-hPro-Pro(4-cis-benzyl)-ArgH.2 HCl] please.
2.1

Provide only the value of recorded Enzyme Kass, Plasmin for Cl.Cl.N=C(N)NCCC[C@@H](C=O)NC(=O)[C@@H]1C[C@H](c2ccccc2)CN1C(=O)[C@H]1CCCCN1 (relative stereo) [Example 6, D-hPro-Pro(4-cis-phenyl)-ArgH.2 HCl]
5.3

Determine from records and report Enzyme Kass, Plasmin for Cl.Cl.Cl.N=C(N)NCCC[C@@H](C=O)NC(=O)[C@@H]1C[C@H](Oc2cccnc2)CN1C(=O)[C@H]1CCCCN1 (relative stereo)
1.7

# return recorded Enzyme Kass, Plasmin for entry Cl.Cl.N=C(N)NCCC[C@@H](C=O)NC(=O)[C@@H]1C[C@H](Oc2cccc(N)c2)CN1C(=O)[C@H]1CCCCN1 (relative stereo)
0.65

Determine its reported Enzyme Kass, Plasmin: CC(C)CC[C@H]1C[C@@H](C(=O)N[C@H](C=O)CCCNC(=N)N)N(C(=O)[C@H]2CC3CCCCC3CN2)C1.Cl.Cl (relative stereo)
14.0

###

For each of the compounds below, state its Enzyme Kass, Xa.
Target: factor Xa (Homo sapiens, UniProt P00742)
Construct: Human factors X, Xa, IXa, XIa, and XIIa are purchased; purchased Enzyme Research Laboratories, South Bend, Ind
Assay: Serine protease selectivity, chromogenic substrate (Kass), factor Xa
Assay type: biochemical
Settings: substrate N-Benzoyl-Ile-Glu-Gly-Arg-p-nitroanilide
Method: The assay is carried out by mixing 50 μL buffer (0.03M Tris, 0.15M NaCl, pH 7.4) with 25 μL of bovine thrombin or human thrombin solution (0.21 mg/mL of thrombostat bovine thrombin, Parke-Davis, or purified human thrombin, Enzyme Research Laboratories, South Bend, Ind., at about 8 NIH units/mL, in the same buffer) and 25 μL of test compound in a solvent (in 50% aqueous methanol, v:v). […]
Could you give me the number in L/mol × 10^6? Just the number is fine.

Identify measured Enzyme Kass, Xa associated with Cl.Cl.N=C(N)NCCC[C@@H](C=O)NC(=O)[C@@H]1C[C@H](Oc2cccc(N)c2)CN1C(=O)[C@H]1CCCCN1 (relative stereo)
0.58

Identify Enzyme Kass, Xa associated with the compound CCS(=O)(=O)N[C@@H](C(=O)N1C[C@@H](Oc2ccccc2)C[C@H]1C(=O)N[C@H](C=O)CCCNC(=N)N)c1ccccc1.Cl (relative stereo) [Example 17, EtSO2 -D-Phg-Pro(4-cis-phenoxy)-ArgH.HCl]
32

Determine its reported Enzyme Kass, Xa: CC(C)CC[C@H]1C[C@@H](C(=O)N[C@H](C=O)CCCNC(=N)N)N(C(=O)[C@H]2CC3CCCCC3CN2)C1.Cl.Cl (relative stereo)
11.6

Complete the entry with Enzyme Kass, Xa for CC[C@H]1C[C@@H](C(=O)N[C@H](C=O)CCCNC(=N)N)N(C(=O)[C@H]2CCCCN2)C1.Cl.Cl (relative stereo)
1.7

Output measured Enzyme Kass, Xa for this item: CCC[C@H]1C[C@@H](C(=O)N[C@H](C=O)CCCNC(=N)N)N(C(=O)[C@H]2CCCCN2)C1.Cl.Cl (relative stereo) [Example 3, D-hPro-Pro(4-cis-n-propyl)-ArgH.2 HCl]
1.7

Identify Enzyme Kass, Xa associated with the compound Cl.Cl.NC(N)=NCCCC(C=O)NC(=O)C1CC(Oc2ccccc2)CN1C(=O)C1NCCC2CCCCC21 [Example 14, L-1-Piq-Pro(4-cis-phenoxy)-ArgH.2 HCl]
0.48

Give the reported value of Enzyme Kass, Xa for this record: Cl.Cl.NC(N)=NCCCC(C=O)NC(=O)C1CC(Oc2ccccc2)CN1C(=O)C1CC2CCCCC2CN1 (centres unmarked)
2.53

Give the value of Enzyme Kass, Xa reported for the following: Cl.Cl.N=C(N)NCCC[C@@H](C=O)NC(=O)[C@@H]1C[C@H](Oc2cccc(C(=O)O)c2)CN1C(=O)[C@H]1CCCCN1 (relative stereo)
1.30
